Recorded growth values for a group of molecules are listed next.
tested on: NCI-H23 lung; assay: NCI-60 one-dose screen, 48 h (100 = growth as untreated, 0 = no growth, -100 = all killed); conditions: 10 µM unless noted
The panel holds about 83,000 compounds, 20% with a hit somewhere; the sample as a whole holds those more often.
Write the value in % as a bare number.

The examples below pair each entry with its known result.
MOLECULE: CC(C)NCCCCCNc1cc(O)cc2cccnc12
growth / %: 45.7
//
MOLECULE: C#CC[C@@H]1C[C@]2(C)[C@H]3CC=C4[C@H]5[C@@H](C)[C@H](C)CC[C@]5(C(=O)NCCCCN)CC[C@@]4(C)[C@]3(C)CC[C@H]2C(C)(C)[C@H]1OC(C)=O
growth / %: 94.8
//
MOLECULE: C=CCn1c(C)nc2cc(Nc3nc(N4CCOCC4)nc4nc[nH]c34)ccc21
growth / %: 106
//
MOLECULE: Clc1ncnc2scc(C3COc4ccccc4O3)c12 (centres undefined)
growth / %: 95.9

Give growth (NCI-H23 lung) of the following molecule: COc1cc(Nc2ccnc3ccc(Br)cc23)cc(OC)c1OC 53.8

Give growth (NCI-H23 lung) of the following molecule: CCc1oc2ccccc2c1C(=O)c1cc(I)c(O)c(I)c1 58.5

Give growth (NCI-H23 lung) of the following molecule: CCC(C)C1NC(=O)c2nc(oc2-c2ccccc2)-c2csc(n2)-c2csc(n2)-c2nc(oc2C)-c2coc(n2)CNC(=O)C(C(C)CC)NC1=O (centres undefined) -68.2

Give growth (NCI-H23 lung) of the following molecule: C/C(CC(=O)NNc1ccc([N+](=O)[O-])cc1)=N\Nc1ccc([N+](=O)[O-])cc1 87.5

Give growth (NCI-H23 lung) of the following molecule: CCCCCCCCCCCCCCC(C(=O)OCC)C(=O)OCC 105

Hey, just so you know, these numbers are from PubChem BioAssay (NCI).
